# EXPERIMENTAL TARGET: UniProt Q96PN6
# Sequence (Q96PN6 1-469): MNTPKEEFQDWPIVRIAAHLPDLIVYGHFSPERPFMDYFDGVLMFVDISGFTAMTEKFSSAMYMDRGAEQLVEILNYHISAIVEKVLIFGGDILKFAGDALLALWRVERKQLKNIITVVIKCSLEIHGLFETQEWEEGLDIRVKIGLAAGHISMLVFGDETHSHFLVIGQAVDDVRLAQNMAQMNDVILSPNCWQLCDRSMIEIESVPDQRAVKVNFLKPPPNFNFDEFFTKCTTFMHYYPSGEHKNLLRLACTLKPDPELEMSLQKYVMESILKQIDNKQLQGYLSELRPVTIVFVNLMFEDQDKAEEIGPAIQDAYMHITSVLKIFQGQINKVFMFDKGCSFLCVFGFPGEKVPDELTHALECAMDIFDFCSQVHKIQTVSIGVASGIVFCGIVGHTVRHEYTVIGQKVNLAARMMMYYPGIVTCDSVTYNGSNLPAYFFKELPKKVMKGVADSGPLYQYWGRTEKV
READOUT: IC50

> print(dat)
                                   molecule  readout     result
1  Cc1n[nH]cc1-c1ccc(F)cc1 [compound 1, 4-(4-Fluorophenyl)-3-methyl-1H-pyrazole]     IC50  > 1000 µM
